systemName: UniProtKB Q14680
parameter: pIC50
Notebook: values listed as pIC50 are -log10 of the concentration (mol/L).

-- ask Param readout = pIC50; param system = UniProtKB Q14680; param query = COc1cc(N2CCC(N3CCN(C)CC3)CC2)ccc1Nc1ncc(Cl)c(Nc2ccccc2P(C)(C)=O)n1 [BRIGATINIB] ; response: value
-- reply 6.05

---

systemName: Aurora kinase C (Homo sapiens, UniProt Q9UQB9)
Sequence (Q9UQB9 whole entry): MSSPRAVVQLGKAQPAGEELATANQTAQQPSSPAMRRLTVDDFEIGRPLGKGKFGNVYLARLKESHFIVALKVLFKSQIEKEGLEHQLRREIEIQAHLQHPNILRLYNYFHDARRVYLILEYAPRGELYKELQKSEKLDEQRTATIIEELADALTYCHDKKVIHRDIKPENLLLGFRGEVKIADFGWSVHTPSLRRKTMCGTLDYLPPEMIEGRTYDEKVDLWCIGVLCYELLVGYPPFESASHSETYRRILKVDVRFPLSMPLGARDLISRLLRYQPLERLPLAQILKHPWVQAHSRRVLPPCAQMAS
pIC50: −log10 of the molar value.
parameter: pIC50

-- ask // pIC50 lookup, key: COc1cc(N2CCC(N3CCN(C)CC3)CC2)ccc1Nc1ncc(Cl)c(Nc2ccccc2P(C)(C)=O)n1
-- reply < 6.00

---

systemName: Calcium/calmodulin-dependent protein kinase type II subunit gamma (Homo sapiens, UniProt Q13555)
Sequence (Q13555 whole entry): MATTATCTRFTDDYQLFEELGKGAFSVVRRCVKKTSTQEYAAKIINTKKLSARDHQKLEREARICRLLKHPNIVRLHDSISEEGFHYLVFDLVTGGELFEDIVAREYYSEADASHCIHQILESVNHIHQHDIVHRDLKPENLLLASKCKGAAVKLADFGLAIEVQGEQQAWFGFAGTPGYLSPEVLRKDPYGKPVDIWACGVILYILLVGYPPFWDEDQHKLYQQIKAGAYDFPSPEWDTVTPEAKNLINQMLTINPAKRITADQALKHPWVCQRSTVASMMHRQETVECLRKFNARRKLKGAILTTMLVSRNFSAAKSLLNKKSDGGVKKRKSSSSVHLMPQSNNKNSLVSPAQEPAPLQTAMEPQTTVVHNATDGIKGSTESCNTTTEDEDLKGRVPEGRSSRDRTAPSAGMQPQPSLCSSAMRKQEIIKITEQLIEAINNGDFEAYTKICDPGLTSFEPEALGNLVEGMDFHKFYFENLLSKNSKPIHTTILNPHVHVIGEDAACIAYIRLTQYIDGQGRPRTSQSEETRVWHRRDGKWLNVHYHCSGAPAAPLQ
runDescription: Inhibition of human CAMK2G using KKLNRTLSFAEPG as substrate in presence of [gamma33P]-ATP by HotSpot assay
parameter: IC50 (nM)
Provide the reading as a plain figure in nM.

-- ask // IC50 lookup, key: COc1cc(N2CCC(N3CCN(C)CC3)CC2)ccc1Nc1ncc(Cl)c(Nc2ccccc2P(C)(C)=O)n1
-- reply 48

---

systemName: Insulin receptor (Homo sapiens)
parameter: pIC50
Notebook: values listed as pIC50 are -log10 of the concentration (mol/L).

-- ask // pIC50 lookup, key: COc1cc(N2CCC(N3CCN(C)CC3)CC2)ccc1Nc1ncc(Cl)c(Nc2ccccc2P(C)(C)=O)n1 [BRIGATINIB]
-- reply 5.03

---

systemName: Hepatocyte growth factor receptor (Homo sapiens)
pIC50: −log10 of the molar value.
parameter: pIC50

-- ask Param readout = pIC50; param system = Hepatocyte growth factor receptor (Homo sapiens); param query = COc1cc(N2CCC(N3CCN(C)CC3)CC2)ccc1Nc1ncc(Cl)c(Nc2ccccc2P(C)(C)=O)n1 [BRIGATINIB] ; response: value
-- reply < 6.00

---

systemName: Tyrosine-protein kinase Fer (Homo sapiens)
Sequence (P16591 whole entry): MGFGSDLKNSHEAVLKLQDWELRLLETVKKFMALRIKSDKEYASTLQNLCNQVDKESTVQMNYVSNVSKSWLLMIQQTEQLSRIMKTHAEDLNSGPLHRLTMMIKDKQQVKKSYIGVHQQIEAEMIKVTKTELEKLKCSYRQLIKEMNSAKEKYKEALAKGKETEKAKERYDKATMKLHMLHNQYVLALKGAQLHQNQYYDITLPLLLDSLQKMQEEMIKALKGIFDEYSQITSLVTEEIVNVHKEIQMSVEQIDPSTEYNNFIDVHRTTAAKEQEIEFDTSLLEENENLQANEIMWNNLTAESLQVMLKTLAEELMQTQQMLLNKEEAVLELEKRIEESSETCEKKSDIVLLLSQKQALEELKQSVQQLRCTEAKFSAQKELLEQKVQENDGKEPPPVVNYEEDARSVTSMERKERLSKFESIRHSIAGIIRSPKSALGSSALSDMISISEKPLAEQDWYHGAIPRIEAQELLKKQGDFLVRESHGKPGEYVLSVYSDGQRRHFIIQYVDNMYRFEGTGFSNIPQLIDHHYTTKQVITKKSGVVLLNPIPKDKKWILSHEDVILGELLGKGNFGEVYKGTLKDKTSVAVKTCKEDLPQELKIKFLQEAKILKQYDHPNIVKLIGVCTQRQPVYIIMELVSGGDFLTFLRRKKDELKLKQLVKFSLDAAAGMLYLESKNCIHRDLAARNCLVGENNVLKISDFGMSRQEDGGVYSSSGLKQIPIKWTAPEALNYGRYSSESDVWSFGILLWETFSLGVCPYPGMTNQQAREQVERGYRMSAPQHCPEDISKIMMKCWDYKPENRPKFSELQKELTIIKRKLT
parameter: IC50 (nM)
Provide the reading as a plain figure in nM.

-- ask Param readout = IC50; param system = Tyrosine-protein kinase Fer (Homo sapiens); param query = COc1cc(N2CCC(N3CCN(C)CC3)CC2)ccc1Nc1ncc(Cl)c(Nc2ccccc2P(C)(C)=O)n1 ; response: value
-- reply 1.3

---

runDescription: in vitro
testConditions: mouse, BaF3 cells
parameter: pIC50
Notebook: values listed as pIC50 are -log10 of the concentration (mol/L).

// known answers, use as guide
| cpdSmiles | reportedMeasurement |
| --- | --- |
| CCc1cc2c(cc1N1CCC(N3CCOCC3)CC1)C(C)(C)c1[nH]c3cc(C#N)ccc3c1C2=O | 5.68 |
| Cc1cc(Nc2ncc(Cl)c(Nc3ccccc3S(=O)(=O)C(C)C)n2)c(OC(C)C)cc1C1CCNCC1 | 5.78 |

Attention now shifts to the item below.
-- ask // pIC50 lookup, key: COc1cc(N2CCC(N3CCN(C)CC3)CC2)ccc1Nc1ncc(Cl)c(Nc2ccccc2P(C)(C)=O)n1
-- reply 5.49

---

The following compounds are shown together with reported IC90 values.
runDescription: in vitro
testConditions: mouse, BaF3 cells
Reply with the number and its unit after it.

// known answers, use as guide
| compound | IC90 |
| --- | --- |
| Cc1cc(Nc2ncc(Cl)c(Nc3ccccc3S(=O)(=O)C(C)C)n2)c(OC(C)C)cc1C1CCNCC1 [CERITINIB] | 2.84 µM |
| COc1cc(N2CCC(N3CCN(C)CC3)CC2)ccc1Nc1ncc(Cl)c(Nc2ccccc2P(C)(C)=O)n1 [BRIGATINIB] | 9.5 µM |

Attention now shifts to the item below.
-- ask // IC90 lookup, key: CCc1cc2c(cc1N1CCC(N3CCOCC3)CC1)C(C)(C)c1[nH]c3cc(C#N)ccc3c1C2=O [ALECTINIB]
-- reply 7.46 µM

---

systemName: Serine/threonine-protein kinase 10 (Homo sapiens)
Sequence (O94804 whole entry): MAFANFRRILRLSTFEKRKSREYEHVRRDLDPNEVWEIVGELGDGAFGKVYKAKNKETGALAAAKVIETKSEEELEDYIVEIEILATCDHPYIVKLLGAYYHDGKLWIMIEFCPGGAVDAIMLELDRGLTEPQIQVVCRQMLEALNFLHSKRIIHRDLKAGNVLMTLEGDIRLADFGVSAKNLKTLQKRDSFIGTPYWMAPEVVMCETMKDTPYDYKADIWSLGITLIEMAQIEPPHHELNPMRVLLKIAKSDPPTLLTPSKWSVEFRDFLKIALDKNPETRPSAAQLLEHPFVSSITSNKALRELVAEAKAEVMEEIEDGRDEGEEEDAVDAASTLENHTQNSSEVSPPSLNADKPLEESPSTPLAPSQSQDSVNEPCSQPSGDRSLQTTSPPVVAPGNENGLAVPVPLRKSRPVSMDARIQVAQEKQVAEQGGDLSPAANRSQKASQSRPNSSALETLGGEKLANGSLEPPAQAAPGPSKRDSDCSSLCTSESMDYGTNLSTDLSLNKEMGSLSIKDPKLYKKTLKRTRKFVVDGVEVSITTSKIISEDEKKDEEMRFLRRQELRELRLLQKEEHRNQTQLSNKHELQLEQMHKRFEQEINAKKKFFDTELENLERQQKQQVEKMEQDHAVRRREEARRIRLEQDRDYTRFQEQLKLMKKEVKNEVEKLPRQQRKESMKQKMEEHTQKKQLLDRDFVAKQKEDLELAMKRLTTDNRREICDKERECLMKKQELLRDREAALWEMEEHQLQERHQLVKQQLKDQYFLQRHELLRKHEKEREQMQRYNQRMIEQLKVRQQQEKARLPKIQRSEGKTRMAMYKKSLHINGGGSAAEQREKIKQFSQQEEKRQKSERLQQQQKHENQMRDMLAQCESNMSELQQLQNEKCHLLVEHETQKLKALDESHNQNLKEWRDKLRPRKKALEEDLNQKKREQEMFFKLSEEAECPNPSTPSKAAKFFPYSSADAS
parameter: pIC50
Notebook: values listed as pIC50 are -log10 of the concentration (mol/L).

-- ask Param readout = pIC50; param system = Serine/threonine-protein kinase 10 (Homo sapiens); param query = COc1cc(N2CCC(N3CCN(C)CC3)CC2)ccc1Nc1ncc(Cl)c(Nc2ccccc2P(C)(C)=O)n1 [BRIGATINIB] ; response: value
-- reply 6.91

---

systemName: Serine/threonine-protein kinase D1 (Homo sapiens)
Sequence (Q15139 whole entry): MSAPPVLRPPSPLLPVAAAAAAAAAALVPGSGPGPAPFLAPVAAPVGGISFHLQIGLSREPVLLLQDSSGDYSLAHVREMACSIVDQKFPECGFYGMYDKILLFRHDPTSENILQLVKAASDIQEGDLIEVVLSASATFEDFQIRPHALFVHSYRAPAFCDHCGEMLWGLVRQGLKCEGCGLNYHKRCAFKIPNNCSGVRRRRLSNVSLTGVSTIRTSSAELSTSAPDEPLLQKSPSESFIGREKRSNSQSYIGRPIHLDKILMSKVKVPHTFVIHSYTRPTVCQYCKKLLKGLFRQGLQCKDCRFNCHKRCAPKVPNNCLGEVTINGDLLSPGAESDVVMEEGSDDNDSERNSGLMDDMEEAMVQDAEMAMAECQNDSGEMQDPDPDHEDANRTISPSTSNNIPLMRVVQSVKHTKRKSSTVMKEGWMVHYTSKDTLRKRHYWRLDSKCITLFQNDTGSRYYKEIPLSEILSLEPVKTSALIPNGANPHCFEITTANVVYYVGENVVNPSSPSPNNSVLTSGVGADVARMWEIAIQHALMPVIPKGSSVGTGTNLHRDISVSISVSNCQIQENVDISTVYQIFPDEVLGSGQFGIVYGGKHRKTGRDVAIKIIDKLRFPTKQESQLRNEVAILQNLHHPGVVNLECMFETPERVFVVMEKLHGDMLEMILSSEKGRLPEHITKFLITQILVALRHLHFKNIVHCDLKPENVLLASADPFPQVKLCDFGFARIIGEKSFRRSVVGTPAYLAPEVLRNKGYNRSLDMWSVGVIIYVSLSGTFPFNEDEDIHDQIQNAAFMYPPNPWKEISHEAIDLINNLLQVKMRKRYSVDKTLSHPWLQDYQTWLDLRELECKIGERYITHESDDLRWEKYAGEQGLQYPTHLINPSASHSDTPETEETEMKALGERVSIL
runDescription: Inhibition of human PRKD1 using KKLNRTLSVA as substrate in presence of [gamma33P]-ATP by HotSpot assay
parameter: IC50
Reply with the number and its unit after it.

-- ask // IC50 lookup, key: COc1cc(N2CCC(N3CCN(C)CC3)CC2)ccc1Nc1ncc(Cl)c(Nc2ccccc2P(C)(C)=O)n1 [BRIGATINIB]
-- reply 197 nM

---

systemName: Ephrin type-B receptor 1 (Homo sapiens, UniProt P54762)
Sequence (P54762 whole entry): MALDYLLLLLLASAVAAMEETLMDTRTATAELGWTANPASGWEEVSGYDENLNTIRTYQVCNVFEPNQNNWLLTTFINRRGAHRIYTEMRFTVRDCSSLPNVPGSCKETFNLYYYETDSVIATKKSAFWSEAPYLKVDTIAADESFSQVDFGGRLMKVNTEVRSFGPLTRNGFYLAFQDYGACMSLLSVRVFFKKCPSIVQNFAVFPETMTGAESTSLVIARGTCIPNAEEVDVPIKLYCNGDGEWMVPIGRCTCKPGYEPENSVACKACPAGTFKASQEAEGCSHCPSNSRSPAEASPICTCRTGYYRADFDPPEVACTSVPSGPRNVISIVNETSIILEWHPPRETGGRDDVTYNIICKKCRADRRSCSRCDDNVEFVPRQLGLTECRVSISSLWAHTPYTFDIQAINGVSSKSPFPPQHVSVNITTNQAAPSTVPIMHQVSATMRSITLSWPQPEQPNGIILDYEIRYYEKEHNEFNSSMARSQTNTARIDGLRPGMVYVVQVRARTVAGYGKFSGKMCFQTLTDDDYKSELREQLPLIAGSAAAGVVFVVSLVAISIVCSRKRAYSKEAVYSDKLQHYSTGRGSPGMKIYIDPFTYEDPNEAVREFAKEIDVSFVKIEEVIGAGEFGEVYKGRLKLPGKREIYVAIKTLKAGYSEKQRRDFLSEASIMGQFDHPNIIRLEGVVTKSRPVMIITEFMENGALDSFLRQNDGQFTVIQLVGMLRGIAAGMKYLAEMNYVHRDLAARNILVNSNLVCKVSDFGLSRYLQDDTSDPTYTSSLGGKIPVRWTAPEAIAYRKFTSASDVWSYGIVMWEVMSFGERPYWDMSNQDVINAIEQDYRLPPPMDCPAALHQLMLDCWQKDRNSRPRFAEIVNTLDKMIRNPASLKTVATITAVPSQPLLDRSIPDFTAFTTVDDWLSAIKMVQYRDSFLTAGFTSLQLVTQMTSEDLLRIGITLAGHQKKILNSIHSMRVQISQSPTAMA
parameter: IC50

-- ask Param readout = IC50; param system = Ephrin type-B receptor 1 (Homo sapiens, UniProt P54762); param query = COc1cc(N2CCC(N3CCN(C)CC3)CC2)ccc1Nc1ncc(Cl)c(Nc2ccccc2P(C)(C)=O)n1 ; response: value
-- reply > 1000 nM

---

systemName: MAP/microtubule affinity-regulating kinase 3 (Homo sapiens)
Sequence (P27448 whole entry): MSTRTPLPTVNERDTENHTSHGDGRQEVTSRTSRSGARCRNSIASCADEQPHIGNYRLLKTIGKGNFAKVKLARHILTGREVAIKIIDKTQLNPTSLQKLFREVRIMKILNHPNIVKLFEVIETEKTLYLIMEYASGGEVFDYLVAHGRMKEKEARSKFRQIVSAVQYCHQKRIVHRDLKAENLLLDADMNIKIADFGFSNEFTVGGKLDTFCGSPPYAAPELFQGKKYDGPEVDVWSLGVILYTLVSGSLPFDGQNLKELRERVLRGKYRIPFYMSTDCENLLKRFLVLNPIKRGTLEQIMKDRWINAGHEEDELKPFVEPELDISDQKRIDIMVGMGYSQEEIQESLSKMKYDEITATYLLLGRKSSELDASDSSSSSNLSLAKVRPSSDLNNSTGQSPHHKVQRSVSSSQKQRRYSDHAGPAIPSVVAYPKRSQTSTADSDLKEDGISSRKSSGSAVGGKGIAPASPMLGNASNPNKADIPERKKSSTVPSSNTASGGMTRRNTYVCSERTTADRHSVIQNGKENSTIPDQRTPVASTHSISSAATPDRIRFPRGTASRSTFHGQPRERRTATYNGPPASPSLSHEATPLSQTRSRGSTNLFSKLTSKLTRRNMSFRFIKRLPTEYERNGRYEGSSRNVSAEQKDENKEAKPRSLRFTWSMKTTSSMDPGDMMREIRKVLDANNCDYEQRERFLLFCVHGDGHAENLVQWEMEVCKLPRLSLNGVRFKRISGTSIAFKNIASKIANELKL
parameter: pIC50
Notebook: values listed as pIC50 are -log10 of the concentration (mol/L).

-- ask Param readout = pIC50; param system = MAP/microtubule affinity-regulating kinase 3 (Homo sapiens); param query = COc1cc(N2CCC(N3CCN(C)CC3)CC2)ccc1Nc1ncc(Cl)c(Nc2ccccc2P(C)(C)=O)n1 ; response: value
-- reply 6.90

---

systemName: Aurora kinase B (Homo sapiens)
pIC50: −log10 of the molar value.
parameter: pIC50

-- ask // pIC50 lookup, key: COc1cc(N2CCC(N3CCN(C)CC3)CC2)ccc1Nc1ncc(Cl)c(Nc2ccccc2P(C)(C)=O)n1 [BRIGATINIB]
-- reply < 6.00

---

systemName: UniProt:P08069
runDescription: Inhibition of human IGF1R using KKKSPGEYVNIEFG as substrate in presence of [gamma33P]-ATP by HotSpot assay
parameter: pIC50
Notebook: values listed as pIC50 are -log10 of the concentration (mol/L).

-- ask Param readout = pIC50; param system = UniProt:P08069; param query = COc1cc(N2CCC(N3CCN(C)CC3)CC2)ccc1Nc1ncc(Cl)c(Nc2ccccc2P(C)(C)=O)n1 [BRIGATINIB] ; response: value
-- reply 7.14

---

systemName: Tyrosine-protein kinase HCK (Homo sapiens, UniProt P08631)
parameter: IC50 (nM)
Provide the reading as a plain figure in nM.

-- ask // IC50 lookup, key: COc1cc(N2CCC(N3CCN(C)CC3)CC2)ccc1Nc1ncc(Cl)c(Nc2ccccc2P(C)(C)=O)n1
-- reply 198

---

systemName: Tyrosine-protein kinase Blk (Homo sapiens)
Sequence (P51451 whole entry): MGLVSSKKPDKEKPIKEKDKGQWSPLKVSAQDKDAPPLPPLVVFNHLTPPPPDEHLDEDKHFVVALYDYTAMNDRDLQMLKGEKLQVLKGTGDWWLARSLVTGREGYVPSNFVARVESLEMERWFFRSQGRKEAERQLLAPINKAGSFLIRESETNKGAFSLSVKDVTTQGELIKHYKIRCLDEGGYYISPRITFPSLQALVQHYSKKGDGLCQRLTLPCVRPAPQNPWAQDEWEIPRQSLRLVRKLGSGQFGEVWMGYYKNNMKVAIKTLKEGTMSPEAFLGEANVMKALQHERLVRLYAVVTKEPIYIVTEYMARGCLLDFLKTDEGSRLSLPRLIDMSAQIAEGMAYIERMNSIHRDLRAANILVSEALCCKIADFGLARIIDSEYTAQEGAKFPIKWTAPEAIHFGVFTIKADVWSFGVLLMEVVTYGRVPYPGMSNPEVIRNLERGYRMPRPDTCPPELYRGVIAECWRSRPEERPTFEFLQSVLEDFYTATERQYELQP
parameter: IC50 (nM)
Provide the reading as a plain figure in nM.

-- ask Param readout = IC50; param system = Tyrosine-protein kinase Blk (Homo sapiens); param query = COc1cc(N2CCC(N3CCN(C)CC3)CC2)ccc1Nc1ncc(Cl)c(Nc2ccccc2P(C)(C)=O)n1 ; response: value
-- reply 136
